Test: probe aLefty1 binding on compound microarray – biochemical, small-molecule microarray, 635/667 nm fluorescence, primary screen (AID 1153);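 further: score merges spot fluorescence with signal-to-noise ratio from the scanned slide images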
Conditions: higher = more signal
PARAMETER: composite z-score
In your answer, state the number alone without any accompanying words.

Enquiry: Given the molecule CC(C)(C)OC(=O)CC[C@]1(C(=O)NCC(O)CO)N=C(c2ccc(OCCCO)cc2)O[C@H]1c1ccccc1CN=[N+]=[N-] (some centres undefined) , what is its reported composite z-score?
Return: 0.975

Enquiry: Ok, now Cc1ccc(S[C@]2(C(=O)NCCCN(C)C)CC(=O)N(Cc3ccccc3)[C@@H]2c2ccc(CO)cc2)cc1
Return: 0.136

Enquiry: Ok, now COCCn1c(C(=O)N(C)C)cc2c1C[C@H]1CN(C(=O)c3ccccc3)[C@@](Cc3ccc(F)cc3)(C(=O)OC)[C@@H]21
Return: 0.211

Enquiry: Ok, now CO[C@H]1O[C@H](CO)[C@@H](OC(=O)Nc2ccc(C(F)(F)F)cc2)[C@H](OC(=O)Nc2ccccc2)[C@@H]1OC(=O)Nc1ccccc1
Return: -0.407

Enquiry: Ok, now C=CCN1C(=O)[C@]2(COC(c3ccc(OCCCO)cc3)=N2)Cc2ccccc21
Return: 0.228

Enquiry: Ok, now CCN(CC)c1ccc(N2CC=CC34O[C@@H]5C=CCCOC(=O)C5[C@H]3C(=O)N(CCCO)[C@@H]4C2=O)cc1 (some centres undefined)
Return: -0.28

Enquiry: Ok, now CN1C(=O)C2C=CC(C(O)C(c3ccccc3)c3ccccc3)N(Nc3ccccc3)C2C1=O (centres undefined)
Return: 0.516

Enquiry: Ok, now COCCOC(=O)N1C(=O)[C@@]2(c3cc(C#CC4=CCCCC4)ccc31)[C@H](C(=O)N1CCN(c3ncccn3)CC1)[C@H]1C(=O)O[C@H](c3ccccc3)[C@H](c3ccccc3)N1[C@@H]2c1ccc(OCCO)cc1
Return: 0.894

---
Enquiry: Given the molecule COC(=O)[C@@]1(Cc2ccc(OC)cc2)[C@H]2c3cc(C(=O)N(C)C)n(Cc4ccc(OC)c(OC)c4)c3C[C@H]2CN1C(=O)c1ccccc1 , what is its reported composite z-score?
Return: 1.14

Enquiry: Ok, now CCCCN1CC=CC23O[C@@H]4/C=C\CCCOC(=O)C4[C@H]2C(=O)N(C(C)CO)[C@@H]3C1=O (some centres undefined)
Return: -0.206

Enquiry: Ok, now C=C(C)[C@@H]1CC=C(C(O)C2C=CC3C(=O)N(Cc4ccccc4)C(=O)C3N2n2cnnc2)CC1 (some centres undefined)
Return: 0.298

Enquiry: Ok, now COc1ccc(C#Cc2ccc3c(c2)[C@]2(C(=O)N3)[C@H](C(=O)N3CCc4cc(OC)c(OC)cc4C3)[C@H]3C(=O)O[C@H](c4ccccc4)[C@H](c4ccccc4)N3[C@@H]2c2ccc(OCCO)cc2)cc1
Return: 0.423

Enquiry: Ok, now C[N+](C)(C)CCCCNC(=O)[C@H]1C[C@H]2C(=O)N3CCC[C@H]3C(=O)N2[C@H]1c1ccc(O)cc1
Return: -0.0141

Enquiry: Ok, now O=C1O[C@@H](c2ccccc2)[C@@H](c2ccccc2)N2[C@@H](c3ccc(O)cc3)[C@]3(C(=O)Nc4ccc(C#CCCO)cc43)[C@@H](C(=O)O)[C@H]12
Return: 1.99

----------
Molecular target: Torsin-1A (Homo sapiens)
Assay: torsin A mutant lysate binding on microarrays – cell lysate, small-molecule microarray, COS7 lysate, 635/667 nm fluorescence, primary screen (AID 1150);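 further: score pools 667 nm emission and signal to noise measuring lysate protein binding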
Details: COS7 hTOR1A mutant lysate, 635 nm fluorescence, higher = more signal
// composite z-score lookup, one value per entry
In your answer, state the number alone without any accompanying words.

Enquiry: Given the compound COc1ccc([Si](C)(C)[C@@H]2[C@@H](CCO)O[C@]3(C(=O)N(Cc4cccc(N5CCCCC5=O)c4)c4ccccc43)[C@H]2C)cc1 , what is its reported composite z-score?
Return: 0.965

Enquiry: Ok, now C=CCC(OC(C)=O)[C@@H]1[C@@H](N(Cc2ccc(-c3ccccc3)cc2)C(=O)c2ccc(C)cc2)c2cc(OCCCO)ccc2N1C(=O)c1ccc2ccccc2n1 (some centres undefined)
Return: 0.115

Enquiry: Ok, now C=C[C@H](OC)[C@@H](OC(=O)Nc1ccc(SC)cc1)c1ccc(OCCO)cc1
Return: 0.792

Consider the record given below.
Enquiry: Given the compound CC(C)C(CO)N1C(=O)[C@@H]2[C@H]3C(=O)OCC=C[C@H]3OC23C=CCN(c2ccc4ccccc4c2)C(=O)[C@@H]13 (some centres undefined) , what is its reported composite z-score?
Return: -2.07

----------
// z-score lookup, one value per entry
Assay: growth effects on S. cerevisiae YJM789 – YJM789 clinical isolate, OD600, 24 h, basal, primary screen (AID 1089);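 further: growth of clinical yeast isolate S. cerevisiae YJM 789 seeded 1000 cells per well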
Details: higher = more signal, called active from +8 up or from −8 down
The source made the active and inactive calls.

Enquiry: Given the compound COc1cc(NN2C(C(O)c3ccccc3)C=CC3C(=O)N(c4ccccc4)C(=O)C32)cc(OC)c1OC (stereo not drawn) , what is its reported z-score?
Return: 0.694 (inactive)

Enquiry: Ok, now [N-]=[N+]=Nc1ccccc1[C@H]1OC(c2ccc(OCCCO)cc2)=N[C@@]1(CCS(=O)(=O)c1ccccc1)C(=O)N1CCOCC1
Return: 1.17 (inactive)

Enquiry: Ok, now CCCCCCC#C[Si](O[C@H](c1ccccc1)c1cn([C@H](C)c2ccccc2)nn1)(C(C)C)C(C)C
Return: -0.285 (inactive)

Enquiry: Ok, now CN1C(=O)C2C=CC(C(O)C=Cc3ccc([N+](=O)[O-])cc3)N(N3CCCCC3)C2C1=O (stereo not drawn)
Return: -0.704 (inactive)

Enquiry: Ok, now O=C(NCC(O)CO)[C@@]1(Cc2ccccc2)COC(c2ccc(OCCCO)cc2)=N1 (stereo partly drawn)
Return: 0.0965 (inactive)

Enquiry: Ok, now COC(=O)[C@@]1(Cc2ccc(OC)cc2)[C@H]2c3cc(C(=O)N4CCCC4)n(CCN4CCOCC4)c3C[C@H]2CN1C(=O)c1ccccc1
Return: -0.674 (inactive)

---
Enquiry: Given the compound CN1C(=O)C2C=CC(C(O)C3=C[C@H]4C[C@@H](C3)C4(C)C)N(Nc3ccc([N+](=O)[O-])cc3[N+](=O)[O-])C2C1=O (stereo partly drawn) , what is its reported z-score?
Return: 1.07 (inactive)

Enquiry: Ok, now Cc1ccc(S[C@]2(C(=O)NCCN3CCOCC3)CC(=O)N(C3CCCCC3)[C@@H]2c2ccc(CO)cc2)cc1
Return: -0.0801 (inactive)

----------
Assay: probe aXIP binding to arrayed compounds – biochemical, NeuroSMM set, 635/667 nm fluorescence, primary screen (AID 1119);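 further: probe is the protein aXip251-270 applied at 1 µg/mL to compound-printed slides; binding of probe to printed compounds measured as 667 nm fluorescence plus signal to noise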
Details: small-molecule microarray, higher = more signal, called active from +8 up or from −8 down
The source made the active and inactive calls.
// composite Z-score lookup, one value per entry

Enquiry: Given the molecule COC(=O)[C@@]1(Cc2ccc(F)cc2)[C@H]2c3cc(C(=O)N4CCCC4)n(CCc4ccc(OC)c(Br)c4)c3C[C@H]2CN1C(=O)c1ccccc1 , what is its reported composite Z-score?
Return: -0.61 (inactive)

Enquiry: Ok, now O=C1C2C=CC(C(O)c3ccccn3)N(Nc3ccccc3F)C2C(=O)N1c1ccccc1 (centres undefined)
Return: -0.21 (inactive)

Enquiry: Ok, now CCCNC(=O)[C@@]1(C)c2ccccc2C(=O)N(Cc2ccc(OC(F)(F)F)cc2)[C@H]1c1ccc(CO)cc1
Return: 2.11 (inactive)

Consider the record given below.
Enquiry: Given the molecule COc1ccc([Si](C)(C)[C@@H]2[C@@H](CC(=O)N3Cc4ccccc4C[C@H]3CO)O[C@]3(C(=O)N(Cc4cccc(N5C(=O)COc6ccccc65)c4)c4ccccc43)[C@H]2C)cc1 , what is its reported composite Z-score?
Return: 1.33 (inactive)

----------
Tested on: XIP peptide (Xip251-270)
Assay: compounds binding XIP fragment 251-270 – biochemical, small-molecule microarray, fluorescence 635/667 nm, 0.5 µg/mL protein, primary screen (AID 1183)
Conditions: fluorescence 635 nm, higher = more signal
Assign condition met whenever composite z-score does not fall below 0.5; assign condition not met whenever it does.

Enquiry: Could you tell me if the measured composite z-score of C=CCN1C(=O)[C@@]2(O[C@@H](CCO)[C@H]([Si](C)(C)c3ccc(OC)cc3)[C@H]2C)c2cc(NC(C)=O)ccc21 reaches 0.5 or more?
Return: condition not met

Enquiry: Ok, now CC(C)[C@H]1COC(=O)N1C(=O)[C@H]1[C@@H](c2ccccc2)N(c2ccccc2)O[C@@H]1C
Return: condition not met

Enquiry: Ok, now CN1C(=O)C2C(C1=O)C1C=C(c3ccc(CO)cc3)C2C(C2CC2)N1Cc1sc2ccccc2c1Cl (configuration not stated)
Return: condition met

Enquiry: Ok, now C[C@]1(C(=O)NCC(F)(F)F)c2ccccc2C(=O)N(Cc2cc(F)cc(C(F)(F)F)c2)[C@H]1c1ccc(CO)cc1
Return: condition not met

Enquiry: Ok, now CC(c1ccccc1)C(O)C1C=CC2C(=O)N(c3ccccc3)C(=O)C2N1Nc1ccccc1F (configuration not stated)
Return: condition met

Field: next compound
Enquiry: Could you tell me if the measured composite z-score of CN(C)CCCCCCNC(=O)[C@@H]1C[C@@H]2C(=O)N[C@@H](Cc3ccccc3)C(=O)N2[C@@H]1c1cccc(OCCO)c1 reaches 0.5 or more?
Return: condition met
